- Target: human interleukin-6 (Homo sapiens)
- Experiment Summary: solution affinity (radiolabel, ZORBAX resin capture)
- Measurement Conditions: 2'-OMe at C3,G6,A16,A19,C20,C28; Bn-dU9 to Pe-dU; Bn-dU12 to Nap-dU; other dT Bn-dU; SB17T: 40 mM HEPES pH 7.5, 102 mM NaCl, 5 mM KCl, 5 mM MgCl2, 1 mM EDTA, 0.05% Tween 20, 37 C

Chain	Display Unit	Kd
GGCAGGUUUGGUAUUAACACGUUAAGUCGUGG [SL1025]	nM	0.16

* * *

- Target: human interleukin-6 (Homo sapiens)
- Experiment Summary: SPR
- Measurement Conditions: 2'-OMe at C3,G6,A16,A19,C20,C28; Bn-dU9 to Pe-dU; Bn-dU12 to Nap-dU; other dT Bn-dU; SB17T: 40 mM HEPES pH 7.5, 102 mM NaCl, 5 mM KCl, 5 mM MgCl2, 1 mM EDTA, 0.05% Tween 20, 37 C
Property: Kd

Chain	Property	Endpoint Value
GGCAGGUUUGGUAUUAACACGUUAAGUCGUGG [SL1025]	Kd	0.23 nM
